Molecular target: sigma 2 (h) (Homo sapiens)
Construct: endogenous; endogenous in cells; host or cells: Jurkat cells
Sequence (Q5BJF2 whole entry): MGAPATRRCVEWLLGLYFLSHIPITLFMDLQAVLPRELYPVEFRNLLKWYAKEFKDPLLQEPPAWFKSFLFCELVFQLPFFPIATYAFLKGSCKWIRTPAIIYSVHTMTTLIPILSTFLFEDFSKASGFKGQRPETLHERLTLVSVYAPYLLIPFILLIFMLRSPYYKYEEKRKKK
Test: sigma 2 (h) agonist radioligand binding assay ([3H]DTG)
Details: Sigma 2 Receptor; 1.00E−06 M; 2nd; read-out: % Inhibition of Control Specific Binding, 2nd
ATTRIBUTE_MEASURED: inhibition at 1 µM (%)
Give bare numbers, in %.

O=C1COCc2ccccc2N1CCCCN1CCN(c2ccc(Cl)cc2)CC1    78.2

I'm hoping you can list inhibition at 1 µM for every compound here, please.
1. O=C1CSCc2ccccc2N1CCCCN1CCN(c2ccccc2Cl)CC1
2. O=C1CCCc2ccccc2N1CCCCN1CCC2(CC1)OCc1ccccc12
3. O=C1COCc2ccccc2N1CCCCN1CCN(c2cccc(Cl)c2)CC1
4. Cn1c(=O)n(CCCCN2CCC3(CC2)OCc2ccccc23)c2ccccc21 [CM699, reference compound]
5. O=C1COCc2ccccc2N1CCCCN1CCC2(CC1)OCc1ccccc12
6. O=C1CCCc2ccccc2N1CCCCN1CCN(c2cccc(Cl)c2)CC1
7. O=C1CCCc2ccccc2N1CCCCN1CCN(c2ccccc2Cl)CC1
8. O=C1CSCc2ccccc2N1CCCCN1CCC2(CC1)OCc1ccccc12

Reply:
1. 43.4
2. 100
3. 99.8
4. 95.9
5. 84.4
6. 98.7
7. 100
8. 108

I'm hoping you can list inhibition at 1 µM for every compound here, please.
1. O=C1CSCc2ccccc2N1CCCCN1CCN(c2cccc(Cl)c2)CC1
2. O=C1CSCc2ccccc2N1CCCCN1CCN(c2ccc(Cl)cc2)CC1
3. O=C1CCCc2ccccc2N1CCCCN1CCN(c2ccc(Cl)cc2)CC1

Reply:
102
95.5
85.9
